- assay.system: ZAP-70 (Homo sapiens)
- Construct: endogenous in cells
- Sequence (P43403 whole entry): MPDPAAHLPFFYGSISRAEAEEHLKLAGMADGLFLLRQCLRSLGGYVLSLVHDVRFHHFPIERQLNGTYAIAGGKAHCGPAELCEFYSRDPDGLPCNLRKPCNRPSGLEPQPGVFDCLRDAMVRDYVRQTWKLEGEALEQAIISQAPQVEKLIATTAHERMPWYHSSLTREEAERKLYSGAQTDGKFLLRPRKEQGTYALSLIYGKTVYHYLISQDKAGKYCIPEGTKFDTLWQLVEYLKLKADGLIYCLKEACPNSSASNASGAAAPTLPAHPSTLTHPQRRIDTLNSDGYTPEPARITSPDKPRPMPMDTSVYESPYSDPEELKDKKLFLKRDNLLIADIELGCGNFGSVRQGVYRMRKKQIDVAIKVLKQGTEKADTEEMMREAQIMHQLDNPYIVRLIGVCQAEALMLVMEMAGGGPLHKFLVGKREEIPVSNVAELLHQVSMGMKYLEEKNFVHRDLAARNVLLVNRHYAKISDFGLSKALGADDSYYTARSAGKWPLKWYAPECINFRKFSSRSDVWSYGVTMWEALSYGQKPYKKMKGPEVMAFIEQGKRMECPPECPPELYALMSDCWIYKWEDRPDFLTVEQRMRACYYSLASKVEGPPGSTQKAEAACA
- assay.info: ZAP-70 kinobeads assay
- condition.context: competition with immobilized aminopyrido-pyrimidine ligand 24 in cell lysate; ZAP-70 detected by dot blot
Where a name gives a salt, the structure may show the parent alone.
I'd appreciate it if you could supply IC50 values for the items below.

The recorded IC50 for entry CS(=O)(=O)Nc1ccccc1Nc1nc(Nc2ccc3c(c2)OCC(=O)N3)ncc1F [Example 23] equals 100 to 1000 nM

The recorded IC50 for entry CS(=O)(=O)Nc1ccccc1Nc1nc(Nc2ccc(-n3cncn3)cc2)ncc1F [Example 198] equals 100 to 1000 nM

The recorded IC50 for entry COc1cc(Nc2nccc(Nc3cccc(C)c3NS(C)(=O)=O)n2)cc(OC)c1OC [Example 176] equals 100 to 1000 nM

The recorded IC50 for entry COc1cc(Nc2ncc(F)c(Nc3ccccc3NS(C)(=O)=O)n2)cc(OCCN2CCCC2)c1 [Example 94, formate salt] equals 100 to 1000 nM

The recorded IC50 for entry CS(=O)(=O)Nc1ccccc1Nc1nc(Nc2cccc(OCC(=O)O)c2)ncc1Cl [Example 149, hydrochloride] equals 100 to 1000 nM

The recorded IC50 for entry COCCOc1cccc(Nc2ncc(F)c(Nc3cccc(C)c3NS(C)(=O)=O)n2)c1 [Example 115] equals 100 to 1000 nM

The recorded IC50 for entry CS(=O)(=O)Nc1ccccc1Nc1nc(Nc2cccc(-n3cnnn3)c2)ncc1Br [Example 216] equals 100 to 1000 nM

The recorded IC50 for entry COc1cc(Nc2ncc([N+](=O)[O-])c(Nc3ccccc3NS(C)(=O)=O)n2)cc(OC)c1OC [Example 68] equals 1000 to 10000 nM

The recorded IC50 for entry CS(=O)(=O)Nc1ccccc1Nc1nc(Nc2ccccc2)ncc1Br [Example 102, hydrochloride] equals 100 to 1000 nM

The recorded IC50 for entry CCN(CC)C(=O)COc1cccc(Nc2ncc(F)c(Nc3ccccc3NS(C)(=O)=O)n2)c1 [Example 100, 2,2,2-trifluoroacetate] equals 100 to 1000 nM

The recorded IC50 for entry Cc1nc(-c2cccc(Nc3ncc(Cl)c(Nc4ccccc4NS(C)(=O)=O)n3)c2)no1 [Example 208] equals 100 to 1000 nM

The recorded IC50 for entry COc1cc(Nc2ncc(F)c(Nc3cccc(C(C)C)c3NS(C)(=O)=O)n2)cc(OC)c1OC [Example 161] equals 100 to 1000 nM

The recorded IC50 for entry CS(=O)(=O)Nc1ccccc1Nc1nc(Nc2cccc(-c3cnco3)c2)ncc1F [Example 193] equals 100 to 1000 nM

The recorded IC50 for entry CN(c1ccccc1Nc1nc(Nc2ccc(OCCN3CCOCC3)cc2)ncc1F)S(C)(=O)=O [Example 111] equals 100 to 1000 nM

The recorded IC50 for entry CS(=O)(=O)Nc1ccccc1Nc1nc(Nc2ccc(OCCN3CCCCC3)cc2)ncc1F [Example 87] equals 100 to 1000 nM

The recorded IC50 for entry COc1cc(Nc2ncc(F)c(Nc3ccccc3NS(=O)(=O)c3ccsc3)n2)cc(OC)c1OC [Example 49] equals 1000 to 10000 nM
